- assay protocol: Glass transition temperature Tg and morphology M by means of DSC
- Type: physicochemical
experimental readout: glass transition temperature Tg (°C)

# compound, glass transition temperature Tg (°C)
records = [
    ("COc1ccc(N(c2ccc(C)cc2)c2ccc(-c3ccc(N(c4ccc(OC)cc4)c4ccc(-c5ccc(N(c6ccc(OC)cc6)c6ccc(-c7ccc(N(c8ccc(C)cc8)c8ccc(OC)cc8)cc7)cc6)cc5)cc4)cc3)cc2)cc1", 138),
    ("COc1ccc(N(c2ccc(OC)cc2)c2ccc3c(c2)C(C)(C)c2cc(N(c4ccc(OC)cc4)c4ccc(-c5ccc(N(c6ccc(OC)cc6)c6ccc7c(c6)C(C)(C)c6cc(N(c8ccc(OC)cc8)c8ccc(OC)cc8)ccc6-7)cc5)cc4)ccc2-3)cc1", 150),
    ("CCN(CC)c1ccc(N(c2ccc(-c3ccc(N(c4ccc(OC)cc4)c4ccc(OC)cc4)cc3)cc2)c2ccc(-c3ccc(N(c4ccc(-c5ccc(N(c6ccc(OC)cc6)c6ccc(OC)cc6)cc5)cc4)c4ccc(N(CC)CC)cc4)cc3)cc2)cc1", 138),
    ("COc1ccc(N(c2ccc(OC)cc2)c2ccc(-c3ccc(N(c4ccc(OC)cc4)c4ccc5c(c4)c4cc(N(c6ccc(OC)cc6)c6ccc(-c7ccc(N(c8ccc(OC)cc8)c8ccc(OC)cc8)cc7)cc6)ccc4n5-c4ccccc4)cc3)cc2)cc1", 158),
    ("COc1ccc(N(c2ccc(OC)cc2)c2ccc(-c3ccc(N(c4ccc(OC)cc4)c4ccc(N(c5ccc(OC)cc5)c5ccc(-c6ccc(N(c7ccc(OC)cc7)c7ccc(OC)cc7)cc6)cc5)cc4)cc3)cc2)cc1", 120),
    ("COc1ccc(N(c2ccc(OC)cc2)c2ccc(-c3ccc(N(c4ccccc4)c4ccc(-c5ccc(N(c6ccccc6)c6ccc(-c7ccc(N(c8ccc(OC)cc8)c8ccc(OC)cc8)cc7)cc6)cc5)cc4)cc3)cc2)cc1", 143),
    ("COc1ccc(N(c2ccc(OC)cc2)c2ccc(-c3ccc(N(c4ccc(OC)cc4)c4ccc(-c5ccc(N(c6ccc(OC)cc6)c6ccc(-c7ccc(N(c8ccc(OC)cc8)c8ccc(OC)cc8)cc7)cc6)cc5)cc4)cc3)cc2)cc1", 136),
    ("COc1ccc(N(c2ccc(OC)cc2)c2ccc(-c3ccc(N(c4ccc(OC)cc4)c4ccc5c(c4)Cc4cc(N(c6ccc(OC)cc6)c6ccc(-c7ccc(N(c8ccc(OC)cc8)c8ccc(OC)cc8)cc7)cc6)ccc4-5)cc3)cc2)cc1", 141),
    ("COc1ccc(N(c2ccc(N(c3ccccc3)c3ccc(N(c4ccccc4)c4ccc(N(c5ccc(OC)cc5)c5ccc6c(c5)C(C)(C)c5ccccc5-6)cc4)cc3)cc2)c2ccc3c(c2)C(C)(C)c2ccccc2-3)cc1", 127),
    ("COc1ccc(N(c2ccc(OC)cc2)c2ccc(-c3ccc(N(c4ccc(OC)cc4)c4ccc(-c5ccc(N(c6ccc(OC)cc6)c6ccc(-c7ccc(N(c8ccc(OC)cc8)c8ccc(OC)cc8)cc7)cc6)s5)s4)cc3)cc2)cc1", 110),
    ("COc1ccc(N(c2ccc(OC)cc2)c2ccc3c(c2)C2(c4cc(N(c5ccc(OC)cc5)c5ccc(OC)cc5)ccc4-3)c3cc(N(c4ccc(OC)cc4)c4ccc(OC)cc4)ccc3-c3ccc(N(c4ccc(OC)cc4)c4ccc(OC)cc4)cc32)cc1 [spiro-MeOTAD, reference compound]", 120),
    ("COc1ccc(C(c2ccc(OC)cc2)c2ccc(N(c3ccc(OC)cc3)c3ccc(-c4ccc(N(c5ccc(OC)cc5)c5ccc(N(c6ccc(OC)cc6)c6ccc(OC)cc6)cc5)cc4)cc3)cc2)cc1", 105),
    ("CCCCCCC1(CCCCCC)c2cc(N(c3ccc(OC)cc3)c3ccc(-c4ccc(N(c5ccc(OC)cc5)c5ccc(OC)cc5)cc4)cc3)ccc2-c2ccc(N(c3ccc(OC)cc3)c3ccc(-c4ccc(N(c5ccc(OC)cc5)c5ccc(OC)cc5)cc4)cc3)cc21", 105),
    ("COc1ccc(N(c2ccc(-c3ccc(N(c4ccc(OC)cc4)c4ccc(-c5ccc(N(c6ccc(OC)cc6)c6ccc(C)c(C)c6)cc5)cc4)cc3)cc2)c2ccc(-c3ccc(N(c4ccc(OC)cc4)c4ccc(C)c(C)c4)cc3)cc2)cc1", 128),
    ("COc1ccc(N(c2ccc(OC)cc2)c2ccc(N(c3ccccc3)c3ccc(-c4ccc(N(c5ccccc5)c5ccc(N(c6ccc(OC)cc6)c6ccc(OC)cc6)cc5)cc4)cc3)cc2)cc1", 96),
    ("COc1ccc(N(c2ccc(OC)cc2)c2ccc(-c3ccc(N(c4ccc(-c5ccc(N(c6ccc(-c7ccc(N(c8ccc(OC)cc8)c8ccc(OC)cc8)cc7)cc6)c6cc(F)c(OC)c(F)c6)cc5)cc4)c4cc(F)c(OC)c(F)c4)cc3)cc2)cc1", 134),
    ("COc1ccc(N(c2ccc(OC)cc2)c2ccc(-c3ccc(N(c4ccc(OC)cc4)c4ccc(C5(c6ccc(N(c7ccc(OC)cc7)c7ccc(-c8ccc(N(c9ccc(OC)cc9)c9ccc(OC)cc9)cc8)cc7)cc6)CCCCC5)cc4)cc3)cc2)cc1", 123),
]
